A collection of binders and their measured pKd
Target: T1, Pot1pC (198-339 V199D) (Schizosaccharomyces pombe, UniProt O13988 198-339, V199D)
T1 sequence: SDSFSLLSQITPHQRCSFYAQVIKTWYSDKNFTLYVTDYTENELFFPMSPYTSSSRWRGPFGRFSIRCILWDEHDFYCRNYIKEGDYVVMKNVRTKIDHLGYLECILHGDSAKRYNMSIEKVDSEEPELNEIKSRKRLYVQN
Experiment: ITC
pKd (log units): -log10 of the concentration in mol/L.

Recorded results for 5 binders are shown here.
                     binder  measured
0   GGTTAGGGT (ssDNA) [C6G]      8.22
1  GGTTACGGT (ssDNA) [9mer]      7.62
2   GGATACGGT (ssDNA) [T3A]      7.43
3   GGTAACGGT (ssDNA) [T4A]      7.68
4   GGTTTCGGT (ssDNA) [A5T]      7.20

Please examine the following record next.
The measured pKd associated with GGTTACGCT (ssDNA) [G8C] reads 7.66

src = paper PMC3545015
